Data provenance: PubChem BioAssay AID1159580

Measured normalized growth accompanies every entry in the list below.
test: chemical genetic growth profiling, strain panel (AID 1159580);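 further: tested at 20 µM; growth read once vehicle control cultures reached saturation at 30 °C; 1 = growth at the plate median or of vehicle wells; lower values mean less growth of the strain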; details: S. cerevisiae deletion strains, growth OD, locus YGR135W, strain pre9, hits give low values
Among all 5,500 compounds or so, about 2,000 (36%) were called active. Another 18% or so got no clear call; they are omitted. Some of the results follow.
Please give only the number in your answer, with no unit.

QUERY: Would you kindly share the measured normalized growth for COC[C@]12CN(C=O)C3[C@@H]4[C@H](OC)C1[C@]3(C1CC3(O)C(OC)C(O)C4(OC(C)=O)C1C3OC(=O)c1ccccc1)[C@@H](OC)C[C@H]2O (some centres not stated) ?
RESULT: 1.02

====

Measured normalized growth accompanies every entry in the list below.
experiment: chemical genetic growth profiling, strain panel (AID 1159580);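 further: tested at 20 µM; growth read once vehicle control cultures reached saturation at 30 °C; 1 = growth at the plate median or of vehicle wells; lower values mean less growth of the strain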; details: S. cerevisiae deletion strains, growth OD, locus YBR136W, strain MEC1, hits give low values
Screen size: about 5,500 compounds; about 2,000 (36%) were called active. Inconclusive results (about 18%) are left out. The list shows a part of the results.
Please give only the number in your answer, with no unit.

{"columns": ["compound", "measuredAttribute", "experimentalResult"],
 "data": [
  ["Cc1ccc(NC(=S)C(C#N)C(=O)N2CCOCC2)c(C)c1 (stereo not given)", "normalized growth", 0.972],
  ["Clc1cc(Cl)cc(C=NCc2ccccc2)c1", "normalized growth", 0.957],
  ["C[C@@H](Nc1ncnc2sc3c(c12)CCCC3)c1ccccc1", "normalized growth", 0.958],
  ["CN(C)c1ccc(/C=C/c2ccc3ccccc3[n+]2C)cc1", "normalized growth", 0.956]
]}

QUERY: Would you kindly share the measured normalized growth for CC1C(c2ccccc2)N(C)C(c2ccccc2)CC1(O)c1ccc(F)cc1 (stereo not given) ?
RESULT: 0.994

====

experiment: chemical genetic growth profiling, strain panel (AID 1159580);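 further: tested at 20 µM; growth read once vehicle control cultures reached saturation at 30 °C; 1 = growth at the plate median or of vehicle wells; lower values mean less growth of the strain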; conditions: S. cerevisiae deletion strains, growth OD, locus YNL298W, strain CLA4, hits give low values
About 2,000 (36%) of roughly 5,500 compounds were called active. About 18% were inconclusive and are not listed. Some of the results follow.
I'd appreciate it if you marked entries Yes when normalized growth is lower than 1 and No when it is not.

Some solved entries appear below for comparison.
{"columns": ["molecule", "labelValue"],
 "data": [
  ["NC(C(=O)O)C(O)C(=O)O (stereo not given)", "No"],
  ["Clc1ccc(CSC(Cn2ccnc2)c2ccc(Cl)cc2Cl)cc1 (stereo not given)", "Yes"]
]}

Moving on to another molecule below.
QUERY: Is 1 strictly greater than the molecule's reported normalized growth? molecule: C[C@]12CCC3C(CC[C@H]4C[C@@H](O)CC[C@]34C)C1CC[C@@H]2O (stereo not given in full)
RESULT: Yes

====

test: chemical genetic growth profiling, strain panel (AID 1159580);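 further: tested at 20 µM; growth read once vehicle control cultures reached saturation at 30 °C; 1 = growth at the plate median or of vehicle wells; lower values mean less growth of the strain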; conditions: S. cerevisiae deletion strains, growth OD, locus YPR135W, strain CTF4, hits give low values
Out of some 5,500 compounds screened, about 2,000 (36%) were called active. Roughly 18% stayed inconclusive and do not appear here. The list shows a part of the results.
Measured normalized growth accompanies every entry in the list below.
Please give only the number in your answer, with no unit.

{"columns": ["compound", "experimentalResult"],
 "data": [
  ["Cc1nn(Cc2ccccc2Cl)c(=N)s1", 0.972],
  ["Cc1c(C)c(C)c(CSc2nc3ccccc3[nH]2)c(C)c1C", 1.26],
  ["O=C1NC2(CCN(Cc3ccccc3)CC2)Oc2ccccc21", 0.834],
  ["CCOC(=O)c1cnn(-c2ccc(F)cc2)c1N", 0.844],
  ["O=S(=O)(c1ccc(Cl)cc1)c1cc(C(F)(F)F)cc(C(F)(F)F)c1", 1.08]
]}

QUERY: Would you kindly share the measured normalized growth for COc1ccc(C(=O)c2sc(Nc3ccccc3)nc2-c2ccccc2)cc1 ?
RESULT: 0.857

QUERY: Try this compound too: c1ccc(-c2csc(-c3cccnc3)n2)cc1
RESULT: 0.377

QUERY: Try this compound too: FC(F)(F)Oc1ccccc1-c1nnc(-c2ccc(Cl)cc2)o1
RESULT: 0.73

QUERY: Try this compound too: COc1cscc1C(N)=O
RESULT: 1.14

QUERY: Try this compound too: Brc1cccc(C=NCc2ccccc2)c1
RESULT: 0.366
